test system: CCRF-CEM (T-Lymphoblastic Leukemia); assay: Bliss excess, mean over the matrix (fraction); higher = more synergy
# Bliss excess per entry
API doc: respond with a numeric literal and nothing else, no unit.

Worked cases, Bliss excess given:
Compound | Endpoint Name | Endpoint Value
Cc1c2c(nn1C)CSCc1cc(n(C)n1)CSc1cc(c3ccccc3c1)OCCCc1c(C(=O)O)n(C)c3c-2c(Cl)ccc13 [AZD5991] + C=CCn1c(=O)c2cnc(Nc3ccc(N4CCN(C)CC4)cc3)nc2n1-c1cccc(C(C)(C)O)n1 [AZD1775] (first compound max 1 µM, partner max 1 µM) | Bliss excess | -0.0011
CN(CCO)CC[C@H](CSc1ccccc1)Nc1ccc(S(=O)(=O)NC(=O)c2ccc(N3CCC([C@@H](O)c4ccccc4-c4ccc(Cl)cc4)CC3)cc2)cc1S(=O)(=O)C(F)(F)F [AZD4320] + Cc1cc2ncnn2cc1Nc1ncc2c(n1)n(C1CCOCC1)c(=O)n2C [AZD7648] (first compound max 1 µM, 7x7, partner max 10 µM) | Bliss excess | 0.0282

Input C=CCn1c(=O)c2cnc(Nc3ccc(N4CCN(C)CC4)cc3)nc2n1-c1cccc(C(C)(C)O)n1 [AZD1775] + C[C@@H]1COCCN1C2=NC(=NC(=C2)C3(CC3)[S@](=N)(=O)C)C4=C5C=CNC5=NC=C4 [AZD6738] (first compound max 1 µM, partner max 10 µM) . Output Bliss excess: 0.0391

###

tested on: MFE-296 (Endometrial Carcinoma); assay: Bliss excess, mean over the matrix (fraction); higher = more synergy
Endpoint Name: Bliss excess
Give the figure by itself; no unit, no explanation.

Below, 2 molecules whose answers are already recorded.
Molecule | Endpoint Value
Cn1cnc2c(F)c(Nc3ccc(Br)cc3Cl)c(C(=O)NOCCO)cc21 [Selumetinib] + CCN(CCO)CCCOc1ccc2c(Nc3cc(CC(=O)Nc4cccc(F)c4)[nH]n3)ncnc2c1 [AZD2811] (first compound max 10 µM, 7x7, partner max 1 µM) | -0.0309
Cc1nc(Nc2ncc(C(=O)Nc3c(C)cccc3Cl)s2)cc(N2CCN(CCO)CC2)n1 [Dasatinib] + CC(=O)Nc1cccc(-n2c(=O)n(C3CC3)c(=O)c3c(Nc4ccc(I)cc4F)n(C)c(=O)c(C)c32)c1 [Trametinib] (first compound max 2 µM, 7x7, partner max 1 µM) | -0.0328

Bliss excess of Cc1c2c(nn1C)CSCc1cc(n(C)n1)CSc1cc(c3ccccc3c1)OCCCc1c(C(=O)O)n(C)c3c-2c(Cl)ccc13 [AZD5991] + CN(C)CCCOc1ccc(-c2ccc3ncc4c(c3c2)n(C2CCOCC2)c(=O)n4C)cn1 [AZD0156] (first compound max 1 µM, 7x7, partner max 1 µM) , assay on MFE-296 (Endometrial Carcinoma), is 0.0092

Reading of Bliss excess for C=CCn1c(=O)c2cnc(Nc3ccc(N4CCN(C)CC4)cc3)nc2n1-c1cccc(C(C)(C)O)n1 [AZD1775] + C[C@@H]1COCCN1C2=NC(=NC(=C2)C3(CC3)[S@](=N)(=O)C)C4=C5C=CNC5=NC=C4 [AZD6738] (first compound max 1 µM, partner max 10 µM) with MFE-296 (Endometrial Carcinoma): 0.0428

Readout Bliss excess for COc1nnc2ccc(N3CCC(c4ccc(OCCN5CCN(C)C(=O)[C@H]5C)cc4)CC3)nn12 [AZD5153] + CC1(C)CCC(CN2CCN(c3ccc(C(=O)NS(=O)(=O)c4ccc(NCC5CCOCC5)c([N+](=O)[O-])c4)c(Oc4cnc5[nH]ccc5c4)c3)CC2)=C(c2ccc(Cl)cc2)C1 [Venetoclax] (first compound max 1 µM, 7x7, partner max 1 µM) , test system MFE-296 (Endometrial Carcinoma), was -0.0824

COc1cccc2c1C(=O)c1c(O)c3c(c(O)c1C2=O)C[C@@](O)(C(=O)CO)C[C@@H]3O[C@H]1C[C@H](N)[C@H](O)[C@H](C)O1 [Doxorubicin] + Cc1cc2ncnn2cc1Nc1ncc2c(n1)n(C1CCOCC1)c(=O)n2C [AZD7648] (first compound max 1 µM, 7x7, partner max 10 µM) on MFE-296 (Endometrial Carcinoma) gives Bliss excess = -0.0119

Note to self: Bliss excess of NC1(C(=O)N[C@@H](CCO)c2ccc(Cl)cc2)CCN(c2ncnc3[nH]ccc23)CC1 [Capivasertib] + Cn1cnc2c(F)c(Nc3ccc(Br)cc3Cl)c(C(=O)NOCCO)cc21 [Selumetinib] (first compound max 10 µM, 7x7, partner max 10 µM) with MFE-296 (Endometrial Carcinoma) was -0.0133

###

system: RO82-W-1 (Thyroid Gland Carcinoma); assay: Bliss excess, mean over the matrix (fraction); higher = more synergy
Endpoint Name: Bliss excess
Just the number, please, no unit attached.

The examples below pair each entry with its known result.
Molecule | Endpoint Value
COc1cc2ncnc(Nc3ccc(F)c(Cl)c3)c2cc1OCCCN1CCOCC1 [Gefitinib] + CC(C)n1c(=O)n(C)c2cnc3cc(F)c(-c4ccc(OCCCN5CCCCC5)nc4)cc3c21 [AZD1390] (first compound max 10 µM, 7x7, partner max 0.3 µM) | -0.0586
CC(=O)Nc1cccc(-n2c(=O)n(C3CC3)c(=O)c3c(Nc4ccc(I)cc4F)n(C)c(=O)c(C)c32)c1 [Trametinib] + Cc1nc(-c2cn3c(n2)-c2ccc(-c4cnn(C(C)(C)C(N)=O)c4)cc2OCC3)n(C(C)C)n1 [Taselisib] (first compound max 1 µM, 7x7, partner max 10 µM) | 0.0426
COc1cccc(OCCCN)c1-c1cc(Nc2cnc(C#N)cn2)n[nH]1 [Prexasertib] + CCc1c2c(nc3ccc(O)cc13)-c1cc3c(c(=O)n1C2)COC(=O)[C@]3(O)CC [SN-38] (first compound max 1 µM, 7x7, partner max 0.3 µM) | 0.0431
CC1(C)CCC(CN2CCN(c3ccc(C(=O)NS(=O)(=O)c4ccc(NCC5CCOCC5)c([N+](=O)[O-])c4)c(Oc4cnc5[nH]ccc5c4)c3)CC2)=C(c2ccc(Cl)cc2)C1 [Venetoclax] + C1CN(CCC1(C(=O)N[C@@H](CCO)C2=CC=C(C=C2)Cl)N)C3=NC=NC4=C3C=CN4 [Capivasertib] (first compound max 1 µM, 7x7, partner max 3 µM) | -0.0312
C[C@@H](Nc1cc(F)cc(F)c1)c1cc(C(=O)N(C)C)cc2c(=O)cc(N3CCOCC3)oc12 [AZD8186] + C1CN(CCC1(C(=O)N[C@@H](CCO)C2=CC=C(C=C2)Cl)N)C3=NC=NC4=C3C=CN4 [AZD5363] (first compound max 10 µM, 7x7, partner max 10 µM) | -0.0132

// recorded Bliss excess for Cc1c2c(nn1C)CSCc1cc(n(C)n1)CSc1cc(c3ccccc3c1)OCCCc1c(C(=O)O)n(C)c3c-2c(Cl)ccc13 [AZD5991] + C[C@@H](Nc1cc(F)cc(F)c1)c1cc(C(=O)N(C)C)cc2c(=O)cc(N3CCOCC3)oc12 [AZD8186] (first compound max 1 µM, 7x7, partner max 3 µM) : 0.0066

Looking up COc1nnc2ccc(N3CCC(c4ccc(OCCN5CCN(C)C(=O)[C@H]5C)cc4)CC3)nn12 [AZD5153] + C[C@@H]1COCCN1C2=NC(=NC(=C2)C3(CC3)[S@](=N)(=O)C)C4=C5C=CNC5=NC=C4 [AZD6738] (first compound max 1 µM, 7x7, partner max 10 µM) , I see its Bliss excess listed as 0.0259

###

Catalogue of combination Emax readings, one per entry.
test system: RO82-W-1 (Thyroid Gland Carcinoma); experiment: combination Emax (second highest fraction inhibited in the dose matrix, 72 h); higher = more inhibition; extreme values may be limits of the assay
Answer with the value's number alone.

Compound | Target Of Assay | combination Emax
Cc1c2c(nn1C)CSCc1cc(n(C)n1)CSc1cc(c3ccccc3c1)OCCCc1c(C(=O)O)n(C)c3c-2c(Cl)ccc13 [AZD5991] + Cc1cc2ncnn2cc1Nc1ncc2c(n1)n(C1CCOCC1)c(=O)n2C [AZD7648] (first compound max 1 µM, 7x7, partner max 10 µM) | RO82-W-1 (Thyroid Gland Carcinoma) | 0.376

combination Emax recorded for this compound, CC1(C)CCC(CN2CCN(c3ccc(C(=O)NS(=O)(=O)c4ccc(NCC5CCOCC5)c([N+](=O)[O-])c4)c(Oc4cnc5[nH]ccc5c4)c3)CC2)=C(c2ccc(Cl)cc2)C1 [Venetoclax] + CS(=O)(=O)CCNCc1ccc(-c2ccc3ncnc(Nc4ccc(OCc5cccc(F)c5)c(Cl)c4)c3c2)o1 [Lapatinib] (first compound max 1 µM, 7x7, partner max 10 µM) , is 0.144

For CCN(CCO)CCCOc1ccc2c(Nc3cc(CC(=O)Nc4cccc(F)c4)[nH]n3)ncnc2c1 [AZD2811] + O=C(c1cc(Cc2n[nH]c(=O)c3ccccc23)ccc1F)N1CCN(C(=O)C2CC2)CC1 [Olaparib] (first compound max 1 µM, 7x7, partner max 10 µM) the compound record lists combination Emax as 0.195

Looking up NC1(C(=O)N[C@@H](CCO)c2ccc(Cl)cc2)CCN(c2ncnc3[nH]ccc23)CC1 [Capivasertib] + COc1nnc2ccc(N3CCC(c4ccc(OCCN5CCN(C)C(=O)[C@H]5C)cc4)CC3)nn12 [AZD5153] (first compound max 10 µM, 7x7, partner max 1 µM) , I see its combination Emax listed as 0.362

In plain terms, Cc1c2c(nn1C)CSCc1cc(n(C)n1)CSc1cc(c3ccccc3c1)OCCCc1c(C(=O)O)n(C)c3c-2c(Cl)ccc13 [AZD5991] + CC1(C)CCC(CN2CCN(c3ccc(C(=O)NS(=O)(=O)c4ccc(NCC5CCOCC5)c([N+](=O)[O-])c4)c(Oc4cnc5[nH]ccc5c4)c3)CC2)=C(c2ccc(Cl)cc2)C1 [Venetoclax] (first compound max 1 µM, 7x7, partner max 1 µM) has a documented combination Emax of 0.255

The compound Cc1c2c(nn1C)CSCc1cc(n(C)n1)CSc1cc(c3ccccc3c1)OCCCc1c(C(=O)O)n(C)c3c-2c(Cl)ccc13 [AZD5991] + CN(C)CCCOc1ccc(-c2ccc3ncc4c(c3c2)n(C2CCOCC2)c(=O)n4C)cn1 [AZD0156] (first compound max 1 µM, 7x7, partner max 1 µM) showed combination Emax equal to 0.265

The compound listed as C=CCn1c(=O)c2cnc(Nc3ccc(N4CCN(C)CC4)cc3)nc2n1-c1cccc(C(C)(C)O)n1 [AZD1775] + C1CN(CCC1(C(=O)N[C@@H](CCO)C2=CC=C(C=C2)Cl)N)C3=NC=NC4=C3C=CN4 [Capivasertib] (first compound max 3 µM, partner max 3 µM) shows combination Emax equal to 0.471

Lookup result for Cc1c2c(nn1C)CSCc1cc(n(C)n1)CSc1cc(c3ccccc3c1)OCCCc1c(C(=O)O)n(C)c3c-2c(Cl)ccc13 [AZD5991] + C1CN(CCC1(C(=O)N[C@@H](CCO)C2=CC=C(C=C2)Cl)N)C3=NC=NC4=C3C=CN4 [Capivasertib] (first compound max 1 µM, 7x7, partner max 3 µM) ; measured combination Emax: 0.246

combination Emax in this record for CS(=O)(=O)CCNCc1ccc(-c2ccc3ncnc(Nc4ccc(OCc5cccc(F)c5)c(Cl)c4)c3c2)o1 [Lapatinib] + Cn1cnc2c(F)c(Nc3ccc(Br)cc3Cl)c(C(=O)NOCCO)cc21 [Selumetinib] (first compound max 10 µM, 7x7, partner max 10 µM) : 0.193
